Data provenance is patent US7494767.

target: T1, GAL4 DNA-binding domain-p1-p6 fusion protein (yeast; human immunodeficiency virus …, UniProt P04386 1-147; P03347 435-512); test: yeast 2-hybrid
T1 construct: also called pGBT9-p1p6; Gag^p6
Endpoint Label: binding result

| Binder | Endpoint Label | Value Observed |
| --- | --- | --- |
| GAL4 activation domain-Tsg101 fragment 241-C (other) RMKEEMDRAQAELNALKRTEEDLKKGHQKLEEMVTRLDQEVAEVDKNIELLKKKDEELSSALEKMENQSENNDIDEVIIPTAPLYKQILNLYAEENAIEDTIFYLGEALRRGVIDLDVFLKHVRLLSRKQFQLRALMQKARKTAGLSDLY | binding result | no binding |
| GAL4 activation domain-Tsg101 N-terminal 215-residue fragment (other, also called N-215) MAVSESQLKKMVSKYKYRDLTVRETVNVITLYKDLKPVLDSYVFNDGSSRELMNLTGTIPVPYRGNTYNIPICLWLLDTYPYNPPICFVKPTSSMTIKTGKHVDANGKIYLPYLHEWKHPQSDLLGLIQVMIVVFGDEPPVFSRPISASYPPYQATGPPNTSYMPGMPGGISPYPSGYPPNPSGYPGCPYPPGGPYPATTSSQYPSQPPVTTVGP | binding result | binds |
| GAL4 activation domain-Tsg101 fragment 311-C (other) NNDIDEVIIPTAPLYKQILNLYAEENAIEDTIFYLGEALRRGVIDLDVFLKHVRLLSRKQFQLRALMQKARKTAGLSDLY | binding result | no binding |
| GAL4 activation domain-Tsg101 N-terminal 155-residue fragment (other, also called N-155) MAVSESQLKKMVSKYKYRDLTVRETVNVITLYKDLKPVLDSYVFNDGSSRELMNLTGTIPVPYRGNTYNIPICLWLLDTYPYNPPICFVKPTSSMTIKTGKHVDANGKIYLPYLHEWKHPQSDLLGLIQVMIVVFGDEPPVFSRPISASYPPYQA | binding result | binds |
